Tested on: A549/ATCC NSCLC
assayRemarks: NCI-60 one-dose screen, 48 h (100 = growth as untreated, 0 = no growth, -100 = all killed)
statedConditions: 10 µM unless noted
The panel holds about 83,000 compounds, 20% with a hit somewhere; the sample as a whole holds those more often.
Each entry below carries its reported growth.

compound | targetOrTestSystem | growth / %
COc1ccc(CNCCN2C(=O)c3ccc4c5c(ccc(c35)C2=O)C(=O)N(CCNCc2ccc(OC)c(OC)c2OC)C4=O)c(OC)c1OC | A549/ATCC NSCLC | -39.9
O=C(NNc1nc2c(F)cccc2n2cccc12)c1cnccn1 | A549/ATCC NSCLC | 15.7
C=C1C(=O)O[C@H]2[C@H]1CC/C(COC(=O)NCc1c[nH]c3ccc(Cl)cc13)=C\CC[C@@]1(C)O[C@@H]21 | A549/ATCC NSCLC | 55.8
COc1cc2c(=O)n(CCN)c3c4cc5c(cc4ccc3c2cc1OC)OCO5 | A549/ATCC NSCLC | -76.5
COc1cccc(-c2nc3occn3c2-c2ccnc(NCCNS(=O)(=O)c3cccc4ccccc34)n2)c1 | A549/ATCC NSCLC | 105
c1ccc2c(-c3nccs3)c[nH]c2c1 | A549/ATCC NSCLC | 100
CC(C)(C)c1cc(/C=N/NC(=O)c2ccccc2NC(=O)c2cccs2)c(O)c(C(C)(C)C)c1 | A549/ATCC NSCLC | 12.8
CN1CCC(=C(c2ccccc2)c2ccccc2)C(c2ccccc2)C1 (configuration not stated) | A549/ATCC NSCLC | 90.8
COc1cc(NC(C)CCCNC(=O)CCC(=O)NCCCNCCCCCCCCNCCCNC(=O)CCC(=O)NCCCC(C)Nc2cc(OC)cc3cccnc23)c2ncccc2c1 (configuration not stated) | A549/ATCC NSCLC | 63
COc1cc(-c2n/c(=C\c3c(O)[nH]c4ccc(Cl)cc34)cc3c2=Nc2ccccc2-3)ccc1F | A549/ATCC NSCLC | -52.2
COc1cccc(-c2cc(C(=O)Nc3ccc(/C=C/c4ccc(OC5CCN(C)CC5)cc4)cc3)ccc2OC)c1 | A549/ATCC NSCLC | -34
COc1cc2oc(-c3cccc(C(=O)Nc4ccc5c(c4)OCO5)c3)cc(=O)c2c(O)c1OC | A549/ATCC NSCLC | 74.9
CCOc1cccc(-c2nc(N)nc(Nc3ccccc3SSc3ccccc3Nc3nc(N)nc(-c4cccc(OCC)c4)n3)n2)c1 | A549/ATCC NSCLC | -10.8
COCCCN1CC(O)=C(c2nc(-c3ccc(C)cc3)cs2)C1=N | A549/ATCC NSCLC | 85.4
COc1ccc(/C=C/c2nc(Nc3ccc(S(=O)(=O)Nc4cc(C)on4)cc3)c3ccccc3n2)cc1 | A549/ATCC NSCLC | 39.1
N#C/C(=C\c1c(-c2ccccc2)[nH]c2ccccc12)C(=O)c1ccc(Cl)cc1 | A549/ATCC NSCLC | 48.8
C=C(C)[C@@H]1CC[C@]2(C(=O)N3CCN(C)CC3)CC[C@]3(C)[C@H](CC[C@@H]4[C@@]5(C)CC[C@H](O)C(C)(C)[C@@H]5CC[C@]43C)[C@@H]12 | A549/ATCC NSCLC | -82.4

====

Test system: PC-3 prostate
assayRemarks: NCI-60 one-dose screen, 48 h (100 = growth as untreated, 0 = no growth, -100 = all killed)
statedConditions: 10 µM unless noted
About 83,000 compounds went through this panel and 20% of them were active in at least one assay; those are over-represented in the sample as a whole.
Label key: 1 (yes) means growth under 50%; 0 (no) means growth of 50% or more.

compound | class
N#Cc1cccc(-c2ccc3c(c2)NC(=O)/C3=C\c2ccc[nH]2)c1 | 0 (no)
O=C(c1nc2ccccc2[nH]1)C1C(c2ccc(Br)cc2)C2CC3CCCC[C@H]3N2[C@@]12C(=O)Nc1cc(Cl)ccc12 (some centres undefined) | 1 (yes)
Cc1cccc(C)c1N=c1oc2ccc(Cl)cc2nc1-c1ccccc1O | 0 (no)
O=C(c1nc2ccccc2[nH]1)C1C(c2ccc(Cl)cc2)C2CC3CCCC[C@H]3N2[C@@]12C(=O)Nc1cc(Cl)ccc12 (some centres undefined) | 1 (yes)
N#Cc1c(NC(=O)NCc2ccccc2)sc2c1CCCCC2 | 1 (yes)
N#Cc1cc(-c2nc3ccccc3s2)c(=O)n(NS(=O)(=O)c2ccccc2)c1N | 0 (no)
CCCOC(=O)N[C@H]1CCc2cc(OC)c(OC)c(OC)c2-c2ccc(SC)c(=O)cc21 | 1 (yes)
COc1ccc2c(c1)oc1c(C)c3c(c(C)c12)C(=O)N(N)C3=O | 0 (no)
